Tested on: TGBC24TKB;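 further: growth inhibition of human TGBC24TKB cells, read out with a cell viability assay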
assayComment: cells
Format: functional, cell-based, Homo sapiens
experimentalSetup: Homo sapiens, TGBC24TKB
Description: SANGER: Inhibition of human TGBC24TKB cell growth in a cell viability assay.
This listing pairs compounds with measured IC50.

Please indicate recorded IC50 of CN(Cc1cnc2nc(N)nc(N)c2n1)c1ccc(C(=O)N[C@@H](CCC(=O)O)C(=O)O)cc1 [METHOTREXATE] measured with TGBC24TKB. > 0.2 µM

Write down the reported IC50 (system: TGBC24TKB) of COC(=O)CNC(=O)C(=O)OC > 4000 µM

Tell me its IC50 on TGBC24TKB: C=CCNC1=C2C[C@@H](C)C[C@H](OC)[C@H](O)[C@@H](C)/C=C(\C)[C@H](OC(N)=O)[C@@H](OC)/C=C\C=C(/C)C(=O)NC(=CC1=O)C2=O > 1 µM

====

Parameter: IC50. Scope: all listed entries.
Test system: KINGS-1;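 further: cell viability assay measuring suppression of KINGS-1 cell growth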
assayComment: cells
Format: functional, cell-based, Homo sapiens
experimentalSetup: Homo sapiens, KINGS-1
Description: SANGER: Inhibition of human KINGS-1 cell growth in a cell viability assay.

[[record]]
molecule = "CN(Cc1cnc2nc(N)nc(N)c2n1)c1ccc(C(=O)N[C@@H](CCC(=O)O)C(=O)O)cc1 [METHOTREXATE]"
assayedtarget = "KINGS-1"
quantityname = "IC50"
measvalue = "> 200 nM"

[[record]]
molecule = "CCC(=O)N1CCN(c2ccc(-n3c(=O)ccc4cnc5ccc(-c6cnc7ccccc7c6)cc5c43)cc2C(F)(F)F)CC1"
assayedtarget = "KINGS-1"
quantityname = "IC50"
measvalue = "58 nM"

[[record]]
molecule = "Cc1cc([C@@H](C)Nc2ccccc2C(=O)O)c2nc(N3CCOCC3)cc(=O)n2c1"
assayedtarget = "KINGS-1"
quantityname = "IC50"
measvalue = "> 5120 nM"


Could you please provide reported IC50 for CC(=O)O[C@@]12CO[C@@H]1C[C@H](O)[C@@]1(C)C(=O)[C@H](O)C3=C(C)[C@@H](OC(=O)[C@H](O)[C@@H](NC(=O)OC(C)(C)C)c4ccccc4)C[C@@](O)([C@@H](OC(=O)c4ccccc4)[C@H]21)C3(C)C ? Thanks! 1.17 nM

Give a short answer stating reported IC50 for Cn1cncc1[C@@](N)(c1ccc(Cl)cc1)c1ccc2c(c1)c(-c1cccc(Cl)c1)cc(=O)n2C . > 16000 nM

Query IC50 for O=C(c1cc(Cc2n[nH]c(=O)c3ccccc23)ccc1F)N1CCN(C(=O)C2CC2)CC1 > 5000 nM

Provide only the value of recorded IC50 for CCOc1nc(NC(=O)Cc2cc(OC)ccc2OC)cc(N)c1C#N > 10000 nM

Fill in reported IC50 for this entry: CN1CCN(CCOc2cc(OC3CCOCC3)c3c(Nc4c(Cl)ccc5c4OCO5)ncnc3c2)CC1 > 2000 nM

====

System: RL95-2;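 further: RL95-2 growth inhibition determined through a cell viability readout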
assayComment: cells
Assay type: functional, cell-based
experimentalSetup: Homo sapiens
Description: SANGER: Inhibition of human RL95-2 cell growth in a cell viability assay.
pIC50: −log10 of the molar value.
quantityName: pIC50

Example cases with answers are listed next.
[[record]]
compound = "CN(c1ncccc1CNc1nc(Nc2ccc3c(c2)CC(=O)N3)ncc1C(F)(F)F)S(C)(=O)=O"
measvalue = "< 5.59"

[[record]]
compound = "C=C1C(=O)O[C@@H]2C3O[C@]3(C)CC/C=C(\\C)CC[C@@H]12 (stereo partly drawn)"
measvalue = "< 5.30"


Read the next record carefully.
Provide pIC50, tested on RL95-2, for Cc1cnc(-c2cnc(NCCNc3ccc(C#N)cn3)nc2-c2ccc(Cl)cc2Cl)[nH]1 . < 5.59
